- Tested on: ICR strain mice
- Experiment summary: Pulmonary toxicity (pulmonary fibrosis) in mice, intraperitoneal injection
- Format: in vivo
- Setup conditions: 5 mg/kg i.p. once a day for 10 days; autopsy after 5 weeks; score 0-6 points
- Description: (3) Pulmonary toxicity (pulmonary fibrosis) in mice. ICR strain mice (male; 15 weeks old; 9 mice per group) were used. Each mouse was administered with a daily dose of 5 mg/kg of the test sample by intraperitoneal injection, once a day, for 10 consecutive days. After completion of the predetermined administration, the mice were kept for 5 weeks under observation, then slaughtered, and autopsied to examine the incidence and grade of pulmonary fibrosis. […]
Listed below: Grade: total score of pulmonary fibrosis/total number of test animal values for each entry.
Assay endpoint: Grade: total score of pulmonary fibrosis/total number of test animal

{"columns": ["Molecule", "Result"],
 "data": [
  ["COc1ccc(CNCCCN(C)CCCNC(=O)c2csc(-c3csc(CCNC(=O)C(NC(=O)C(C)C(O)C(C)NC(=O)C(NC(=O)c4nc(C(CC(N)=O)NCC(N)C(N)=O)nc(N)c4C)C(OC4OC(CO)C(O)C(O)C4OC4OC(CO)C(O)C(OC(N)=O)C4O)c4cnc[nH]4)C(C)O)n3)n2)c(OC)c1 (stereo not drawn)", "2/18"],
  ["Cc1c(N)nc(C(CC(N)=O)NCC(N)C(N)=O)nc1C(=O)NC(C(=O)NC(C)C(O)C(C)C(=O)NC(C(=O)NCCc1nc(-c2nc(C(=O)NCCCN(C)CCCN(Cc3ccc(OCc4ccccc4)c(OCc4ccccc4)c3)Cc3ccc(OCc4ccccc4)c(OCc4ccccc4)c3)cs2)cs1)C(C)O)C(OC1OC(CO)C(O)C(O)C1OC1OC(CO)C(O)C(OC(N)=O)C1O)c1cnc[nH]1 (stereo not drawn)", "0/27"],
  ["Cc1c(N)nc(C(CC(N)=O)NCC(N)C(N)=O)nc1C(=O)NC(C(=O)NC(C)C(O)C(C)C(=O)NC(C(=O)NCCc1nc(-c2nc(C(=O)NCCCN(C)CCCNC(C)c3ccc(Cl)cc3)cs2)cs1)C(C)O)C(OC1OC(CO)C(O)C(O)C1OC1OC(CO)C(O)C(OC(N)=O)C1O)c1cnc[nH]1 (stereo not drawn)", "3/27"]
]}

* * *

- Tested on: ICR strain mice
- Experiment summary: Pulmonary toxicity (pulmonary fibrosis) in mice, intraperitoneal injection
- Type: in vivo
- Setup conditions: 5 mg/kg i.p. once a day for 10 days; reference of the ratio not stated

{"columns": ["Compound", "Incidence of pulmonary fibrosis, Ratio"],
 "data": [
  ["Cc1c(N)nc(C(CC(N)=O)NCC(N)C(N)=O)nc1C(=O)NC(C(=O)NC(C)C(O)C(C)C(=O)NC(C(=O)NCCc1nc(-c2nc(C(=O)NCCCN(C)CCCNCCc3ccc(Cl)cc3)cs2)cs1)C(C)O)C(OC1OC(CO)C(O)C(O)C1OC1OC(CO)C(O)C(OC(N)=O)C1O)c1cnc[nH]1 (stereo not drawn)", 0.35],
  ["Cc1c(N)nc(C(CC(N)=O)NCC(N)C(N)=O)nc1C(=O)NC(C(=O)NC(C)C(O)C(C)C(=O)NC(C(=O)NCCc1nc(-c2nc(C(=O)NCCCN3CCN(CCCN(Cc4ccccc4)Cc4ccccc4)CC3)cs2)cs1)C(C)O)C(OC1OC(CO)C(O)C(O)C1OC1OC(CO)C(O)C(OC(N)=O)C1O)c1cnc[nH]1 (stereo not drawn)", 0.00],
  ["Cc1c(N)nc(C(CC(N)=O)NCC(N)C(N)=O)nc1C(=O)NC(C(=O)NC(C)C(O)C(C)C(=O)NC(C(=O)NCCc1nc(-c2nc(C(=O)NCCCN(C)CCCNCC3CCCCCCC3)cs2)cs1)C(C)O)C(OC1OC(CO)C(O)C(O)C1OC1OC(CO)C(O)C(OC(N)=O)C1O)c1cnc[nH]1.Cl.Cl.Cl (stereo not drawn)", 0.00],
  ["Cc1c(N)nc(C(CC(N)=O)NCC(N)C(N)=O)nc1C(=O)NC(C(=O)NC(C)C(O)C(C)C(=O)NC(C(=O)NCCc1nc(-c2nc(C(=O)NCCCN3CCN(CCCNCC4CCCCCCC4)CC3)cs2)cs1)C(C)O)C(OC1OC(CO)C(O)C(O)C1OC1OC(CO)C(O)C(OC(N)=O)C1O)c1cnc[nH]1 (stereo not drawn)", 0.00],
  ["COc1ccc(COc2ccc(CN(CCCN(C)CCCNC(=O)c3csc(-c4csc(CCNC(=O)C(NC(=O)C(C)C(O)C(C)NC(=O)C(NC(=O)c5nc(C(CC(N)=O)NCC(N)C(N)=O)nc(N)c5C)C(OC5OC(CO)C(O)C(O)C5OC5OC(CO)C(O)C(OC(N)=O)C5O)c5cnc[nH]5)C(C)O)n4)n3)Cc3ccc(OCc4ccc(OC)cc4)c(OCc4ccc(OC)cc4)c3)cc2OCc2ccc(OC)cc2)cc1 (stereo not drawn)", 0.00],
  ["Cc1c(N)nc(C(CC(N)=O)NCC(N)C(N)=O)nc1C(=O)NC(C(=O)NC(C)C(O)C(C)C(=O)NC(C(=O)NCCc1nc(-c2nc(C(=O)NCCC[N+](C)(CCCN(Cc3ccccc3)Cc3ccccc3)Cc3ccccc3)cs2)cs1)C(C)O)C(OC1OC(CO)C(O)C(O)C1OC1OC(CO)C(O)C(OC(N)=O)C1O)c1cnc[nH]1 (stereo not drawn)", 0.00]
]}

* * *

Listed below: Incidence: number of mice suffering from pulmonary fibrosis values for each entry.
- System: ICR strain mice
- Experiment summary: Pulmonary toxicity (pulmonary fibrosis) in mice, intraperitoneal injection
- Format: in vivo
- Setup conditions: 5 mg/kg i.p. once a day for 10 days; autopsy after 5 weeks; affected/total mice
Assay endpoint: Incidence: number of mice suffering from pulmonary fibrosis

{"columns": ["Compound", "Assay system", "Result"],
 "data": [
  ["Cc1c(N)nc(C(CC(N)=O)NCC(N)C(N)=O)nc1C(=O)NC(C(=O)NC(C)C(O)C(C)C(=O)NC(C(=O)NCCc1nc(-c2nc(C(=O)NCCCN3CCN(CCCN(Cc4ccccc4)Cc4ccccc4)CC3)cs2)cs1)C(C)O)C(OC1OC(CO)C(O)C(O)C1OC1OC(CO)C(O)C(OC(N)=O)C1O)c1cnc[nH]1 (stereo not drawn)", "ICR strain mice", "0/9"],
  ["Cc1c(N)nc(C(CC(N)=O)NCC(N)C(N)=O)nc1C(=O)NC(C(=O)NC(C)C(O)C(C)C(=O)NC(C(=O)NCCc1nc(-c2nc(C(=O)NCCCN(C)CCCNCc3ccc(C#N)cc3)cs2)cs1)C(C)O)C(OC1OC(CO)C(O)C(O)C1OC1OC(CO)C(O)C(OC(N)=O)C1O)c1cnc[nH]1 (stereo not drawn)", "ICR strain mice", "0/9"],
  ["Cc1c(N)nc(C(CC(N)=O)NCC(N)C(N)=O)nc1C(=O)NC(C(=O)NC(C)C(O)C(C)C(=O)NC(C(=O)NCCc1nc(-c2nc(C(=O)NCCCN(C)CCCN(Cc3ccc(OCC4CCCCCCC4)cc3)Cc3ccc(OCC4CCCCCCC4)cc3)cs2)cs1)C(C)O)C(OC1OC(CO)C(O)C(O)C1OC1OC(CO)C(O)C(OC(N)=O)C1O)c1cnc[nH]1 (stereo not drawn)", "ICR strain mice", "0/9"],
  ["Cc1c(N)nc(C(CC(N)=O)NCC(N)C(N)=O)nc1C(=O)NC(C(=O)NC(C)C(O)C(C)C(=O)NC(C(=O)NCCc1nc(-c2nc(C(=O)NCCCN(C)CCCN(Cc3ccc(OCc4ccc(Cl)c(Cl)c4)c(OCc4ccc(Cl)c(Cl)c4)c3)Cc3ccc(OCc4ccc(Cl)c(Cl)c4)c(OCc4ccc(Cl)c(Cl)c4)c3)cs2)cs1)C(C)O)C(OC1OC(CO)C(O)C(O)C1OC1OC(CO)C(O)C(OC(N)=O)C1O)c1cnc[nH]1 (stereo not drawn)", "ICR strain mice", "0/9"],
  ["Cc1c(N)nc(C(CC(N)=O)NCC(N)C(N)=O)nc1C(=O)NC(C(=O)NC(C)C(O)C(C)C(=O)NC(C(=O)NCCc1nc(-c2nc(C(=O)NCCCN(C)CCCNCc3ccc(Cl)c(Cl)c3)cs2)cs1)C(C)O)C(OC1OC(CO)C(O)C(O)C1OC1OC(CO)C(O)C(OC(N)=O)C1O)c1cnc[nH]1 (stereo not drawn)", "ICR strain mice", "1/9"],
  ["Cc1c(N)nc(C(CC(N)=O)NCC(N)C(N)=O)nc1C(=O)NC(C(=O)NC(C)C(O)C(C)C(=O)NC(C(=O)NCCc1nc(-c2nc(C(=O)NCCCN(C)CCCNCCc3ccc(Cl)cc3)cs2)cs1)C(C)O)C(OC1OC(CO)C(O)C(O)C1OC1OC(CO)C(O)C(OC(N)=O)C1O)c1cnc[nH]1 (stereo not drawn)", "ICR strain mice", "2/9"]
]}

* * *

- Tested on: ICR strain mice
- Experiment summary: Pulmonary toxicity (pulmonary fibrosis) in mice, intraperitoneal injection
- Format: in vivo
- Setup conditions: 5 mg/kg i.p. once a day for 10 days; autopsy after 5 weeks
- Description: (3) Pulmonary toxicity (pulmonary fibrosis) in mice. ICR strain mice (male; 15 weeks old; 9 mice per group) were used. Each mouse was administered with a daily dose of 5 mg/kg of the test sample by intraperitoneal injection, once a day, for 10 consecutive days. After completion of the predetermined administration, the mice were kept for 5 weeks under observation, then slaughtered, and autopsied to examine the incidence and grade of pulmonary fibrosis. […]
Assay endpoint: Grade of pulmonary fibrosis, % (%)

{"columns": ["Compound", "Assay endpoint", "Result number"],
 "data": [
  ["Cc1c(N)nc(C(CC(N)=O)NCC(N)C(N)=O)nc1C(=O)NC(C(=O)NC(C)C(O)C(C)C(=O)NC(C(=O)NCCc1nc(-c2nc(C(=O)NCCCN(C)CCCN)cs2)cs1)C(C)O)C(OC1OC(CO)C(O)C(O)C1OC1OC(CO)C(O)C(OC(N)=O)C1O)c1cnc[nH]1 (stereo not drawn) [APMP, reference compound]", "Grade of pulmonary fibrosis, %", 0],
  ["Cc1c(N)nc(C(CC(N)=O)NCC(N)C(N)=O)nc1C(=O)NC(C(=O)NC(C)C(O)C(C)C(=O)NC(C(=O)NCCc1nc(-c2nc(C(=O)NCCCN(C)CCCN(Cc3ccc(OCc4ccc(Cl)c(Cl)c4)c(OCc4ccc(Cl)c(Cl)c4)c3)Cc3ccc(OCc4ccc(Cl)c(Cl)c4)c(OCc4ccc(Cl)c(Cl)c4)c3)cs2)cs1)C(C)O)C(OC1OC(CO)C(O)C(O)C1OC1OC(CO)C(O)C(OC(N)=O)C1O)c1cnc[nH]1 (stereo not drawn)", "Grade of pulmonary fibrosis, %", 0],
  ["Cc1c(N)nc(C(CC(N)=O)NCC(N)C(N)=O)nc1C(=O)NC(C(=O)NC(C)C(O)C(C)C(=O)NC(C(=O)NCCc1nc(-c2nc(C(=O)NCCC[N+](C)(C)CCCN(Cc3ccccc3)Cc3ccccc3)cs2)cs1)C(C)O)C(OC1OC(CO)C(O)C(O)C1OC1OC(CO)C(O)C(OC(N)=O)C1O)c1cnc[nH]1 (stereo not drawn)", "Grade of pulmonary fibrosis, %", 0],
  ["CC[N+](CC)(CCCNCCc1ccc(Cl)cc1)CCCNC(=O)c1csc(-c2csc(CCNC(=O)C(NC(=O)C(C)C(O)C(C)NC(=O)C(NC(=O)c3nc(C(CC(N)=O)NCC(N)C(N)=O)nc(N)c3C)C(OC3OC(CO)C(O)C(O)C3OC3OC(CO)C(O)C(OC(N)=O)C3O)c3cnc[nH]3)C(C)O)n2)n1 (stereo not drawn)", "Grade of pulmonary fibrosis, %", 0],
  ["Cc1c(N)nc(C(CC(N)=O)NCC(N)C(N)=O)nc1C(=O)NC(C(=O)NC(C)C(O)C(C)C(=O)NC(C(=O)NCCc1nc(-c2nc(C(=O)NCCCN(C)CCCNCc3ccc(Cl)cc3Cl)cs2)cs1)C(C)O)C(OC1OC(CO)C(O)C(O)C1OC1OC(CO)C(O)C(OC(N)=O)C1O)c1cnc[nH]1 (stereo not drawn)", "Grade of pulmonary fibrosis, %", 7],
  ["Cc1c(N)nc(C(CC(N)=O)NCC(N)C(N)=O)nc1C(=O)NC(C(=O)NC(C)C(O)C(C)C(=O)NC(C(=O)NCCc1nc(-c2nc(C(=O)NCCCN(C)CCCN(Cc3ccccc3)Cc3ccccc3)cs2)cs1)C(C)O)C(OC1OC(CO)C(O)C(O)C1OC1OC(CO)C(O)C(OC(N)=O)C1O)c1cnc[nH]1 (stereo not drawn)", "Grade of pulmonary fibrosis, %", 7]
]}
